Taken from patent US11673866B2.

test system: MOG35-55-stimulated splenocytes; experiment: Cytokine and chemokine production by splenocytes from EAE mice (Luminex); type: in vivo, mouse; parameters: key: IFNγ / Peripheral Inflammatory Cytokines: IL-lβ / Peripheral Inflammatory Cytokines: IL-2 / Peripheral Inflammatory Cytokines: IL-6 / Peripheral Inflammatory Cytokines: IL-17 / Peripheral Inflammatory Cytokines: TNFα / Peripheral Th2 & Anti-inflammatory Cytokines: IL-4 / Peripheral Th2 & Anti-inflammatory Cytokines: IL-5 / Peripheral Th2 & Anti-inflammatory Cytokines: IL-10 / Peripheral Th2 & Anti-inflammatory Cytokines: IL-13 / Peripheral Chemokines: CXCL1 / Peripheral Chemokines: CXCL10: ‘+’ indicate marker was significantly (p ≤ 0.05) increased in treatment group relative to vehicle; ‘−’ indicates marker was significantly (p ≤ 0.05) decreased in treatment group relative to vehicle; ○: ‘o’ indicate marker did not change relative to vehicle; conditions: Post (therapeutic, postEAE) treatment of EAE mice, vs vehicle
reported-endpoint: Peripheral Inflammatory Cytokines: IL-17

Please report the recorded Peripheral Inflammatory Cytokines: IL-17 for C[C@]12CC[C@@H]3c4ccc(O)cc4CC[C@H]3[C@@H]1CC[C@@H]2O [E2, 170 estradiol] .
−

Another compound: `Oc1ccc(-n2nc3ccc(O)cc3c2Cl)c(Cl)c1`
−

Another compound: `Oc1ccc(-n2nc3ccc(O)cc3c2Cl)cc1`
○

Another compound: `Cc1cc(O)ccc1-n1nc2ccc(O)cc2c1Cl`
−

====

tested on: MOG35-55-stimulated splenocytes; assay: Cytokine and chemokine production by splenocytes from EAE mice (Luminex); format: in vivo, mouse; set-up: key: IFNγ / Peripheral Inflammatory Cytokines: IL-lβ / Peripheral Inflammatory Cytokines: IL-2 / Peripheral Inflammatory Cytokines: IL-6 / Peripheral Inflammatory Cytokines: IL-17 / Peripheral Inflammatory Cytokines: TNFα / Peripheral Th2 & Anti-inflammatory Cytokines: IL-4 / Peripheral Th2 & Anti-inflammatory Cytokines: IL-5 / Peripheral Th2 & Anti-inflammatory Cytokines: IL-10 / Peripheral Th2 & Anti-inflammatory Cytokines: IL-13 / Peripheral Chemokines: CXCL1 / Peripheral Chemokines: CXCL10: ‘+’ indicate marker was significantly (p ≤ 0.05) increased in treatment group relative to vehicle; ‘−’ indicates marker was significantly (p ≤ 0.05) decreased in treatment group relative to vehicle; ○: ‘o’ indicate marker did not change relative to vehicle; conditions: Post (therapeutic, postEAE) treatment of EAE mice, vs vehicle
reported-endpoint: Peripheral Inflammatory Cytokines: TNFα

Please report the recorded Peripheral Inflammatory Cytokines: TNFα for Cc1cc(O)ccc1-n1nc2ccc(O)cc2c1Cl [IndCl-o-Me] .
○

Another compound: Oc1ccc(-n2nc3ccc(O)cc3c2Cl)c(Cl)c1 [IndCl-o-Cl]
○

Another compound: C[C@]12CC[C@@H]3c4ccc(O)cc4CC[C@H]3[C@@H]1CC[C@@H]2O [E2, 170 estradiol]
○

Another compound: Oc1ccc(-n2nc3ccc(O)cc3c2Cl)cc1 [IndCl, chloroindazole]
○

====

target: ERα (Homo sapiens); assay: Relative binding affinity (RBA) to estrogen receptor alpha, radiometric measurement; settings: relative value to 100% for E2 by radiometric measurement
Sequence (P03372 whole entry, species assumed): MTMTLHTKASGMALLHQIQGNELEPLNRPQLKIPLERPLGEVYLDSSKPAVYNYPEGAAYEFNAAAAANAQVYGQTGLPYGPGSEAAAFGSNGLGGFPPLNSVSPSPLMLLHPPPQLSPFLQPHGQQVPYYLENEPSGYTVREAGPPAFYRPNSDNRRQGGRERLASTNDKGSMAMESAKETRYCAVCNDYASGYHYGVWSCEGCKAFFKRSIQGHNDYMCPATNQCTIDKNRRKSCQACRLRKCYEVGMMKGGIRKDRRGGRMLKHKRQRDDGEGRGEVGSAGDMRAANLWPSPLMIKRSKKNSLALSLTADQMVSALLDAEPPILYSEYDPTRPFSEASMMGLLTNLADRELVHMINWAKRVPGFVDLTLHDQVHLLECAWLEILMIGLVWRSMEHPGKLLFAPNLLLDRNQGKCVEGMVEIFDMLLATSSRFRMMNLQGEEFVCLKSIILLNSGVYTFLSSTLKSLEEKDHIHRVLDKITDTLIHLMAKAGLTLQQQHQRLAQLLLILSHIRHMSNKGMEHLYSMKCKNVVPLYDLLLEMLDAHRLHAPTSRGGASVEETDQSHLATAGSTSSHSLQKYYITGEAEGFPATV
Overview of recorded RBA ERα for various molecules

// known answers, use as guide
Please report the recorded RBA ERα for `Oc1cc(Cl)c(-n2cc3cc(O)ccc3n2)c(Cl)c1` .
0.088%

Another molecule: `Oc1cc(F)c(-n2cc3cc(O)ccc3n2)c(F)c1`
0.03%

Another molecule: `Oc1ccc(-n2nc3ccc(O)cc3c2Cl)c(Br)c1`
0.47%

Another molecule: `C=CCc1c2cc(O)ccc2nn1-c1ccc(O)cc1Br`
0.34%

Another molecule: `N#Cc1cc(O)ccc1-n1nc2ccc(O)cc2c1Cl`
0.05%

Lab note: next molecule to report on.
Please report the recorded RBA ERα for `OCc1c2cc(O)ccc2nn1-c1ccc(O)cc1` .
0.04%
